experiment: chemical genetic growth profiling, strain panel (AID 1159580);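 also: tested at 20 µM; growth read once vehicle control cultures reached saturation at 30 °C; 1 = growth at the plate median or of vehicle wells; lower values mean less growth of the strain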; settings: S. cerevisiae deletion strains, growth OD, locus YER133W, strain GLC7
About 2,000 (36%) of roughly 5,500 compounds were called active. Roughly 18% stayed inconclusive and do not appear here. Rule as the data show it: active = normalized growth mostly below about 0.91 (no sharp cut-off); inconclusive = no clear call, values can overlap the other calls; inactive = mostly above about 0.92. The list shows a part of the results.
Select the matching outcome among 1 (yes) (active), 0 (no) (inactive)

INPUT: Please let me know the test result on file for Cc1c(C)c(C)c(C(O)c2ccccc2)c(C)c1C (stereo unspecified) .
OUTPUT: 0 (no)

INPUT: Record lookup: outcome of this test for `OC(COc1ccc(F)cc1)(c1ccccc1)c1ccccc1` ?
OUTPUT: 0 (no)

INPUT: State the result this test recorded for `Oc1c(Br)cc(Br)cc1C=Nc1ccc(Sc2ccccc2)nc1Sc1ccccc1` .
OUTPUT: 1 (yes)

INPUT: Answer briefly: the call reported for `O/N=C(/c1ccc(Cl)cc1)c1cc2ccccc2o1` in this assay.
OUTPUT: 0 (no)

INPUT: Assay result, entry `Oc1c(Br)cc(Br)cc1/C=N\n1cnnc1` — outcome?
OUTPUT: 1 (yes)

INPUT: Each compound tested received a call. Report the one for `Oc1c(Cl)cc(Cl)cc1C=Nc1ccc(Sc2ccccc2)nc1Sc1ccccc1` .
OUTPUT: 1 (yes)

====

assay: chemical genetic growth profiling, strain panel (AID 1159580);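 also: tested at 20 µM; growth read once vehicle control cultures reached saturation at 30 °C; 1 = growth at the plate median or of vehicle wells; lower values mean less growth of the strain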; conditions: S. cerevisiae deletion strains, growth OD, locus YLR330W, strain CHS5
Screen size: about 5,500 compounds; about 2,000 (36%) were called active. Roughly 18% stayed inconclusive and do not appear here. Rule as the data show it: active = normalized growth mostly below about 0.91 (no sharp cut-off); inconclusive = no clear call, values can overlap the other calls; inactive = mostly above about 0.92. The list shows a part of the results.
The reply should be one of these categories: true (1) (active), false (0) (inactive)

INPUT: Record request — test call for CC1O[C@@H](Oc2c(-c3ccc(O)c(O)c3)oc3cc(O)cc(O)c3c2=O)[C@H](O)[C@H](O)[C@H]1O (stereo partly drawn)
OUTPUT: false (0)

INPUT: Call for entry COc1ccc2c3c1OC1C(O)CC=C4C(C2)N(C)CCC431 (stereo not drawn) :
OUTPUT: false (0)

INPUT: Hi team, can someone confirm the assay call for COC(=O)[C@]1(C)CCC[C@]2(C)c3ccc(C(C)C)cc3C(=O)CC12 (stereo partly drawn) ?
OUTPUT: false (0)

INPUT: Field: outcome | Entry: `O=c1c(O)c(-c2cc(O)c(O)c(O)c2)oc2cc(O)cc(O)c12`
OUTPUT: false (0)

INPUT: Give the logged outcome of this assay for the following compound: `COc1ccc(-c2cc(=O)c3c(O)cc(O[C@H]4O[C@H](CO[C@@H]5O[C@@H](C)[C@H](O)[C@@H](O)[C@H]5O)[C@@H](O)[C@H](O)[C@H]4O)cc3o2)cc1`
OUTPUT: false (0)

INPUT: Test call for this compound, please: CCCC(C)(COC(N)=O)COC(=O)NC(C)C (stereo not drawn)
OUTPUT: false (0)

INPUT: Which outcome was entered for the compound O=C1C=C2C(=CCOC2O)O1 (stereo not drawn) in this test?
OUTPUT: true (1)

INPUT: Called result for `Cc1[nH]ccc2c1[nH]c1cc(=O)ccc12`
OUTPUT: false (0)

INPUT: Please state the recorded outcome for this compound: CC(=O)Oc1ccc2c(c1C(C)C)CCC1C(C)(C)CCC[C@]21C (stereo partly drawn)
OUTPUT: false (0)

INPUT: Please indicate how the test categorized COC(=O)[C@@]1(C)CCC[C@]2(C)c3ccc(O)c(C(C)C)c3CCC12 (stereo partly drawn) .
OUTPUT: true (1)

INPUT: # lookup: test call for CC(C)(C)NCC(O)c1cc(Cl)c(N)c(Cl)c1 (stereo not drawn)
OUTPUT: false (0)

INPUT: I would be grateful if you could indicate the recorded call for CC1(C)C(=O)C=C[C@@]2(C)C1CC(=O)[C@]1(C)C2CC[C@@]2(C)[C@H](c3ccoc3)OC(=O)[C@H]3O[C@]321 (stereo partly drawn) .
OUTPUT: false (0)

INPUT: Could you kindly confirm the outcome this assay logged for `CCCCOc1cc(C(=O)NCCN(CC)CC)c2ccccc2n1` ?
OUTPUT: false (0)

INPUT: Would you mind telling me which call this test gave CCCCC1C(=O)N(c2ccccc2)N(c2ccc(O)cc2)C1=O (stereo not drawn) ?
OUTPUT: false (0)

INPUT: # fetch the recorded call for CC(=O)[C@@]1(O)CCC2C3C[C@H](C)C4=CC(=O)C=CC4(C)[C@@]3(F)[C@@H](O)C[C@@]21C (stereo partly drawn) here
OUTPUT: false (0)

INPUT: # fetch the recorded call for `CCOCN(C(=O)CCl)c1c(C)cccc1CC` here
OUTPUT: false (0)

INPUT: For `CCOC(=O)c1c(C)cc(O)cc1O` , what call appears in the results of this test?
OUTPUT: true (1)

INPUT: Given CN[C@@H]1C(O)[C@@H](O[C@@H]2[C@@H](O)[C@H](O[C@H]3OC(CN)=CC[C@H]3N)[C@@H](N)C[C@H]2N)OC[C@]1(C)O (stereo partly drawn) , state the outcome it received in this test.
OUTPUT: false (0)

INPUT: Any idea what this test logged for `NC(=O)c1ncn([C@@H]2O[C@H](CO)[C@@H](O)[C@H]2O)n1` ?
OUTPUT: false (0)

INPUT: For this compound, state the assay outcome: CC(C)N(CCC(C(N)=O)(c1ccccc1)c1ccccn1)C(C)C (stereo not drawn)
OUTPUT: false (0)

INPUT: Which outcome was entered for the compound CC(=O)OC1CN2CCC1CC2 (stereo not drawn) in this test?
OUTPUT: false (0)

INPUT: Hello, I am checking results. What call was entered for COc1ccc2c(c1C(C)C)CCC1C(C)(C)C(=O)CCC21C (stereo not drawn) ?
OUTPUT: false (0)

INPUT: Lab log entry: C[C@@H]1O[C@@H](OC[C@H]2OC(Oc3c(-c4ccc(O)c(O)c4)oc4cc(O)cc(O)c4c3=O)[C@H](O)[C@@H](O)[C@@H]2O)[C@H](O)[C@H](O)[C@H]1O (stereo partly drawn) — outcome as called in the assay?
OUTPUT: false (0)

INPUT: Which outcome was assigned to CCC1OC(=O)[C@H](C)C(=O)[C@H](C)[C@@H](OC2O[C@H](C)C[C@H](N(C)C)[C@H]2O)[C@](C)(OC)C2(CCCn3cnc(-c4cccnc4)c3)C[C@@H](C)C(=O)[C@H](C)[C@H]3N(C2)C(=O)O[C@]13C (stereo partly drawn) in this test?
OUTPUT: false (0)

INPUT: How did this test come out for CC1(C)C(=O)C=C[C@@]2(C)C1C=C[C@]1(C)C2CC[C@@]2(C)[C@H](c3ccoc3)OC(=O)C3OC321 (stereo partly drawn) ?
OUTPUT: false (0)

INPUT: Test call, this compound: `Cc1cc(OC(=O)c2c(C)cc(O)cc2O)cc(O)c1C(=O)O`
OUTPUT: false (0)

INPUT: Recorded call for `Cc1cc(C2CCCCC2)n(O)c(=O)c1` ?
OUTPUT: true (1)

INPUT: How did this test come out for `Cc1cc(OC(=O)c2c(C)cc(OC(=O)c3c(C)cc(O)cc3O)cc2O)cc(O)c1C(=O)O` ?
OUTPUT: false (0)

INPUT: For CC1(C)C2CC(=O)[C@]3(C)C(CC[C@@]4(C)[C@H](c5ccoc5)OC(=O)[C@H]5O[C@]543)[C@@]2(C)C(=O)C[C@H]1O (stereo partly drawn) , which call appears in the assay record?
OUTPUT: false (0)

INPUT: // return assay outcome for `CC[n+]1c(-c2ccccc2)c2cc(N)ccc2c2ccc(N)cc21`
OUTPUT: true (1)

INPUT: What was the test verdict on `CCOC(=O)c1c(C)cc(OC)cc1O` ?
OUTPUT: false (0)

INPUT: Hi team, can someone confirm the assay call for `CCC(=O)c1c(O)cc(O)cc1O` ?
OUTPUT: false (0)

INPUT: What outcome does the record of this test show for `CCc1cc(C(N)=S)ccn1` ?
OUTPUT: false (0)

INPUT: For `COc1cc(OC)c2c(=O)c(OC)c(-c3ccc(OC)c(OC)c3)oc2c1` , what call appears in the results of this test?
OUTPUT: false (0)

INPUT: Short answer needed: outcome of this test for `CC1=CC(=O)C2=C(C)CC[C@@H]3[C@H](OC(=O)[C@H]3C)[C@@H]12` ?
OUTPUT: false (0)

INPUT: What was the test verdict on `CN1C(C)(C)CCCC1(C)C` ?
OUTPUT: false (0)

INPUT: Assay result, entry `COc1ccc(-c2cc(=O)c3c(O)cc(O[C@@H]4O[C@H](CO[C@H]5O[C@H](C)[C@@H](O)[C@H](O)[C@@H]5O)[C@@H](O)[C@H](O)[C@H]4O)cc3o2)cc1O` — outcome?
OUTPUT: false (0)

INPUT: Call for entry CC1(C)C(=O)C=C[C@@]2(C)C1C[C@@H](O)[C@]1(C)C2CC[C@@]2(C)[C@H](c3ccoc3)OC(=O)[C@H]3O[C@]321 (stereo partly drawn) :
OUTPUT: false (0)
